Compiled Kd measurements on Mast/stem cell growth factor receptor Kit (Homo sapiens, UniProt P10721) taken from the literature.

Would you please look over these solved cases?
CC(C)(F)c1cc(NC(=O)Cc2ccc(-c3ccc(NCCN4CCOCC4)nc3)cc2)on1: ≤ 1 nM
CC(C)(C)c1cc(NC(=O)Cc2ccc(F)cc2)on1: 1000 to 10000 nM
CC(C)(C)Nc1ncc(-c2ccc(NC(=O)Nc3cc(C(C)(C)C)on3)nc2)cn1: 1 to 10 nM
CC(C)(C)c1cc(NC(=O)Cc2ccc(-c3ccc(N)nc3)cn2)no1: ≤ 1 nM
CC(C)(C)c1cc(NC(=O)Nc2ccc(-c3ccc(NCCCN4CCOCC4)nc3)cc2)no1: ≤ 1 nM
CC1(c2cc(NC(=O)Cc3ccc(-c4ccc(NCCS(C)(=O)=O)nc4)cc3)no2)CC1: ≤ 1 nM
CCN1CCN(C(=O)CCc2ccc3c(c2)sc2nc(-c4ccc(NC(=O)Nc5cc(C(C)(C)C)on5)cc4)cn23)CC1: < 10 nM
Cc1nc2cc(NC(=O)Nc3ccc(-c4cn5c(n4)sc4cc(OCCN6CCOCC6)ccc45)cc3)ccc2s1: 10 to 100 nM

Form: Entry = CC(C)(C)c1cc(NC(=O)Cc2ccc(NC(=O)c3cnc4ccccc4c3)cc2)no1 | System = Mast/stem cell growth factor receptor Kit (Homo sapiens, UniProt P10721) | Kd = ____
< 100 nM

Form: Entry = O=C(Nc1ccc(-c2cnc(NCCN3CCOCC3)nc2)cc1)Nc1cccc(C(F)(F)F)c1 | System = Mast/stem cell growth factor receptor Kit (Homo sapiens, UniProt P10721) | Kd = ____
≤ 1 nM

Form: Entry = COc1cc(N)ncc1-c1ccc(CC(=O)Nc2cc(C(C)(C)C)on2)cc1 | System = Mast/stem cell growth factor receptor Kit (Homo sapiens, UniProt P10721) | Kd = ____
1 to 10 nM

Form: Entry = CC(C)(C)c1cc(NC(=O)Nc2ccc(-c3ccc(N)nc3)c(Cl)c2)no1 | System = Mast/stem cell growth factor receptor Kit (Homo sapiens, UniProt P10721) | Kd = ____
≤ 1 nM

Form: Entry = CC(C)(C)c1cc(NC(=O)Cc2ccc(Cl)cc2)on1 | System = Mast/stem cell growth factor receptor Kit (Homo sapiens, UniProt P10721) | Kd = ____
1000 to 10000 nM

Form: Entry = CC(C)(C)c1cc(NC(=O)Cc2ccc(OCc3ccccc3)cc2)on1 | System = Mast/stem cell growth factor receptor Kit (Homo sapiens, UniProt P10721) | Kd = ____
100 to 1000 nM

Form: Entry = CC(C)(F)c1cc(NC(=O)Nc2ccc(-c3ccc(NCCN4CCOCC4)nc3)cc2)on1 | System = Mast/stem cell growth factor receptor Kit (Homo sapiens, UniProt P10721) | Kd = ____
≤ 1 nM

Form: Entry = CC(C)(C)c1cc(NC(=O)Nc2ccc(-c3cnc(N)c(C#N)c3)cc2)no1 | System = Mast/stem cell growth factor receptor Kit (Homo sapiens, UniProt P10721) | Kd = ____
1 to 10 nM

Form: Entry = Cn1[nH]c2ncc(-c3ccc(CC(=O)Nc4cc(C(C)(C)C)on4)cc3)cc2c1=O | System = Mast/stem cell growth factor receptor Kit (Homo sapiens, UniProt P10721) | Kd = ____
10 to 100 nM

Form: Entry = CC(C)(C)c1cc(NC(=O)Cc2ccc(NC(=O)c3ccc4cnccc4n3)cc2)no1 | System = Mast/stem cell growth factor receptor Kit (Homo sapiens, UniProt P10721) | Kd = ____
< 100 nM
